experiment: Inhibition of Influenza virus B/Ned/537/05 RNA dependent RNA polymerase using ApG primer [adenyl (3'-5') guanosine] and [8-3H]GTP after 1 hr by filter-based assay
Reported IC50 values follow for various compounds
outcome_measure: IC50 (µM)

chem_smiles=NC(=O)c1nc(F)cn([C@@H]2O[C@H](COP(=O)(O)OP(=O)(O)OP(=O)(O)O)[C@@H](O)[C@H]2O)c1=O number=2.7
chem_smiles=Nc1nc2c(ncn2[C@@H]2O[C@H](COP(=O)(O)OP(=O)(O)OP(=O)(O)O)[C@@H](O)[C@H]2F)c(=O)[nH]1 number=4.4

----------
tested on: Influenza B virus; experiment: microbe, parasite or virus in culture; conditions: Ned/537/05, MDCK, 72 h
Description: Antiviral activity against Influenza virus B/Ned/537/05 infected in MDCK cells assessed as reduction in viral replication at 3 days post infection by microscopic analysis
outcome_measure: EC50

compound=CCCCCCCCCC(=O)Oc1ccc(COP(=O)(OCc2ccc(OC(=O)CCCCCCCCC)cc2)OP(=O)(O)OC[C@H]2O[C@@H](n3ccnc(C(N)=O)c3=O)[C@H](O)[C@@H]2O)cc1.CCN(CC)CC result="0.81 µM"
compound="CCCCCCCCCCCCCCC(=O)Oc1ccc(COP(=O)(OCc2ccc(OC(=O)CCCC)cc2)OP(=O)(O)OP(=O)(O)OC[C@H]2O[C@@H](n3ccnc(C(N)=O)c3=O)[C@H](O)[C@@H]2O)cc1.CCN(CC)CC.CCN(CC)CC (stereo partly drawn)" result="9.9 µM"
compound="CCCCCCCCCCCCCCC(=O)Oc1ccc(COP(=O)(OCc2ccc(OC(=O)CCCC)cc2)OP(=O)(O)OC[C@H]2O[C@@H](n3ccnc(C(N)=O)c3=O)[C@H](O)[C@@H]2O)cc1.CCN(CC)CC (stereo partly drawn)" result="0.67 µM"
compound=CCCCCCCCCC(=O)Oc1ccc(COP(=O)(OCc2ccc(OC(=O)CCCCCCCCC)cc2)OP(=O)(O)OP(=O)(O)OC[C@H]2O[C@@H](n3ccnc(C(N)=O)c3=O)[C@H](O)[C@@H]2O)cc1.CCN(CC)CC.CCN(CC)CC result="2.6 µM"
compound="Cc1cccc2c1OP(=O)(OC[C@H]1O[C@@H](n3ccnc(C(N)=O)c3=O)[C@H](O)[C@@H]1O)OC2 (stereo partly drawn)" result="176 µM"
compound=NC(=O)c1nc(Br)cn([C@@H]2O[C@H](CO)[C@@H](O)[C@H]2O)c1=O result="> 250 µM"
compound=NC(=O)c1nc(Br)cnc1O result="> 250 µM"
compound=NC(=O)c1nccn([C@@H]2O[C@H](CO)[C@@H](O)[C@H]2O)c1=O result="24 µM"
compound="CC(=O)O[C@@H]1[C@H](OC(C)=O)[C@@H](COP2(=O)OCc3cccc(C)c3O2)O[C@H]1n1ccnc(C(N)=O)c1=O (stereo partly drawn)" result="> 400 µM"
compound=NC(=O)c1nc(F)cnc1O result="9 µM"
compound=NC(=O)c1nccnc1O result="2.8 µM"
compound=NC(=O)c1ncn([C@@H]2O[C@H](CO)[C@@H](O)[C@H]2O)n1 result="5.9 µM"
compound="CCCCCCCCCCCCCCC(=O)Oc1ccc(COP(=O)(OCc2ccc(OC(=O)CCCC)cc2)OP(=O)(O)OC[C@H]2O[C@@H](n3cc(F)nc(C(N)=O)c3=O)[C@H](O)[C@@H]2O)cc1.CCN(CC)CC (stereo partly drawn)" result="7.2 µM"
